# ASSAYED TARGET: ITK (Homo sapiens, UniProt Q08881)
# Sequence (Q08881 whole entry): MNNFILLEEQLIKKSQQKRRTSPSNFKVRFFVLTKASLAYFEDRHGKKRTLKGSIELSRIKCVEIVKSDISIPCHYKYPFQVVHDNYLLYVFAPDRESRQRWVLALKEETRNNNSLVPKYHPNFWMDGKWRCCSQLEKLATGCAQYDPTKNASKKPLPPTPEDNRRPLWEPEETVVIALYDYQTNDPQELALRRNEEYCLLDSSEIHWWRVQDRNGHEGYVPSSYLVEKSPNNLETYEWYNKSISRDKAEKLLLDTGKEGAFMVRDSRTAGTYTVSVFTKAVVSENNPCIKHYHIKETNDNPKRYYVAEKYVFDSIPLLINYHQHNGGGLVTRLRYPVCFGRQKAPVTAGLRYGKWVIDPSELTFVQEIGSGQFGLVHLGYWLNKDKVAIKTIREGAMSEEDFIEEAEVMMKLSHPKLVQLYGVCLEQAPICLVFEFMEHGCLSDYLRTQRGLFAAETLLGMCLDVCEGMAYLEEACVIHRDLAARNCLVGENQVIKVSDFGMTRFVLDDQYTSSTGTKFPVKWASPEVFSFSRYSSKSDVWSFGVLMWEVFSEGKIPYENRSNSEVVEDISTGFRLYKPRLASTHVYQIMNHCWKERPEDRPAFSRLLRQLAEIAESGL
# PROTOCOL DESCRIPTION: Inhibition of a panel of kinases, in vitro HotSpot kinase assay: ITK
# Type: biochemical
# CONDITION PARAMETERS: Table 13, A compounds; 1 μM ATP
pIC50: −log10 of the molar value.
// reported pIC50 per item

C[C@@H]1[C@H](NC(=O)c2ccc(C3CC3)cc2F)CCCN1c1cnc(C(N)=O)c(Nc2ccc(CN3CCN(C)CC3)cc2)n1 | 6.00 to 7.00

Input: Given the entry `Cc1nn(C)cc1Nc1nc(N2CCC[C@@H](NC(=O)c3ccc(C4CC4)cc3)[C@H]2C)cnc1C(N)=O` , report its measured pIC50.
Output: < 5.00

Input: Given the entry `CN1CCN(Cc2ccc(Nc3nc(N4CCC[C@@H](n5ccc6cc(C7CC7)ccc6c5=O)C4)cnc3C(N)=O)cc2)CC1` , report its measured pIC50.
Output: 6.00 to 7.00

Input: Given the entry `C=CC(=O)N[C@H]1CCCN(c2nnc(C(N)=O)c(Nc3ccc(C(C)C)cc3)n2)C1` , report its measured pIC50.
Output: 6.00 to 7.00

* * *

// reported IC50 per item
# ASSAYED TARGET: ITK (Homo sapiens, UniProt Q08881)
# PROTOCOL DESCRIPTION: Inhibition of a panel of kinases, in vitro HotSpot kinase assay: ITK
# Type: biochemical
# CONDITION PARAMETERS: D-compounds panel data; 1 μM ATP

Here's what some known entries look like.
C[C@@H]1[C@H](NC(=O)c2ccc(C3CC3)cc2)CCCN1c1cnc(C(N)=O)c(Nc2cnn(C)c2)n1 [Example D-135] | 100 to 1000 nM
Cc1cc(Nc2nc(N3CCC[C@@H](NC(=O)N(C)C)[C@H]3CO)cnc2C(N)=O)sn1 [Example D-67] | 1000 to 10000 nM
C[C@@H]1[C@H](NC(=O)c2ccc(C(C)(C)O)nc2)CCCN1c1cnc(C(N)=O)c(Nc2cnn(C)c2)n1 [Example D-40] | 100 to 1000 nM
C[C@@H]1[C@H](NC(=O)c2ccc(OC3CC3)cc2)CCCN1c1cnc(C(N)=O)c(Nc2cnn(C)c2)n1 [Example D-219] | 100 to 1000 nM
Cc1cc(Nc2nc(N3CCC[C@@H](c4ncc(-c5ccc(C6CC6)cc5)[nH]4)[C@H]3C)cnc2C(N)=O)sn1 [Example D-186] | > 10000 nM

Input: Notebook entry, ITK (Homo sapiens, UniProt Q08881) assay: IC50 of C[C@@H]1[C@H](NC(=O)c2ccc(C3CC3)cc2Cl)CCCN1c1cnc(C(N)=O)c(Nc2ccc(N3CCN(C)CC3)cc2)n1 [Example D-16] = ?
Output: 100 to 1000 nM

Input: Notebook entry, ITK (Homo sapiens, UniProt Q08881) assay: IC50 of C[C@@H]1[C@H](NC(=O)c2ccc(C3CC3)nc2)CCCN1c1cnc(C(N)=O)c(Nc2ccc(N3CCC(F)(F)CC3)cc2)n1 [Example D-305] = ?
Output: 100 to 1000 nM

Input: Notebook entry, ITK (Homo sapiens, UniProt Q08881) assay: IC50 of C[C@@H]1[C@H](NC(=O)c2ccc(C3CC3)cc2)CCCN1c1cnc(C(N)=O)c(Nc2cnn(CCN(C)C)c2)n1 [Example D-187] = ?
Output: 1000 to 10000 nM

Input: Notebook entry, ITK (Homo sapiens, UniProt Q08881) assay: IC50 of C[C@@H]1[C@H](NC(=O)c2ccc(C3(CO)CC3)cc2)CCCN1c1cnc(C(N)=O)c(Nc2cnn(C)c2)n1 [Example D-260] = ?
Output: 100 to 1000 nM

Input: Notebook entry, ITK (Homo sapiens, UniProt Q08881) assay: IC50 of Cc1cc(Nc2nc(N3CCC[C@@H](NC(=O)c4ccc(C(C)(C)O)cc4)[C@H]3C)cnc2C(N)=O)sn1 [Example D-159] = ?
Output: 100 to 1000 nM

Input: Notebook entry, ITK (Homo sapiens, UniProt Q08881) assay: IC50 of CN1CCN(c2ccc(Nc3cc(N4CCC[C@@H](n5ccc6cc(C7CC7)ccc6c5=O)C4)cnc3C(N)=O)cc2)CC1 [Example D-178] = ?
Output: 1000 to 10000 nM

Input: Notebook entry, ITK (Homo sapiens, UniProt Q08881) assay: IC50 of Cn1cc(Nc2nc(N3C4CCC(NC(=O)c5ccc(C6CC6)cc5)C3CC4)cnc2C(N)=O)cn1 (single isomer, unassigned) [Example D-201] = ?
Output: 1000 to 10000 nM

Input: Notebook entry, ITK (Homo sapiens, UniProt Q08881) assay: IC50 of CCN(CC)c1ccc(C(=O)N[C@@H]2CCCN(c3cnc(C(N)=O)c(Nc4cnn(C)c4)n3)[C@@H]2C)cc1 [Example D-218] = ?
Output: 100 to 1000 nM

// data source = patent US20210070748A1
